assay: soluble on expression in E. coli; label from the status in PepcDB or PDB records
readoutName: soluble on expression in E. coli

MRTLTIEPLTKDAFAPFGDVIETDGSDHFMINNGSTMRFHRLAEVDTAQPDDKAIISIFRAESLPMPLTIGMLERHPQGSQAFIPLLGNPFLIVVAPVGDAPESALTRAFVSNGRQGVNYHRGVWHHPVLTIEKQDDFLVVDRSGSGNNCDEHYFEENQRLVLDPNPQEGLEHHHHHH ... soluble
MMLSATQPLSEKLPAHGCRHVAIIMDGNGRWAKKQGKIRAFGHKAGAKSVRRAVSFAANNGIEALTLYAFSSENWNRPAQEVSALMELFVWALDSEVKSLHRHNVRLRIIGDTSRFNSRLQERIRKSEALTAGNTGLTLNIAANYGGRWDIVQGVRQLAEKVQQGNLQPDQIDEEMLNQHVCMHELAPVDLVIRTGGEHRISNFLLWQIAYAELYFTDVLWPDFDEQDFEGALNAFANRERRFGGTEPGDETA ... soluble
